FYI, the data here is from patent US4206117A.

Tested on: Aconitineinduced arrhythmia, rats
Assay: animal or person
Assay type: in vivo, rats (Sprague Dawley)
Conditions: Rattus norvegicus, po, read-out: R.M.A. (relative maximum activity)

- mol: "CCNCCCCOc1c(C)nc(Cc2ccccc2)c2c1COC2"
  tgt: "Aconitineinduced arrhythmia, rats"
  Emax, %: 140
- mol: "Cc1nc(Cc2ccccc2)c2c(c1OCCCN1CCNCC1)COC2"
  tgt: "Aconitineinduced arrhythmia, rats"
  Emax, %: 116
- mol: "CCOC(=O)c1c(Cc2ccccc2)nc(C)c(OCCCN(C)C)c1C(=O)OCC"
  tgt: "Aconitineinduced arrhythmia, rats"
  Emax, %: 147

* * *

Test: Therapeutic range, quotient of LD 50 (mice) and ED 50 (rats)
Format: in vivo
Conditions: in vivo; LD 50 mice i.p. / ED 50 rats oral
Procedure: To determine the anti-arrhythmic activity, the drugs were administered orally to rats (Sprague Dawley, weight from 180 to 240 g) 45 minutes before the start of the narcosis. The animals were narcotized with thiobutabartial (100 mg/kg administered intraperitoneally). […] The acute toxicity was determined on groups of 10 or 20 female Swiss mice, weighing 20-26 g, the compounds being administered intraperitoneally.
The reader will find reported selectivity ratio values listed item by item below.

- compound: "Cc1nc(Cc2ccccc2)c2c(c1OCCN(C)C)COC2.Cl.Cl [Example 1, bis-hydrochloride]"
  selectivity ratio: "~4.74"
- compound: "Cc1nc(Cc2ccccc2)c2c(c1OCCCCNCCC(C)(C)O)COC2 [Example 68]"
  selectivity ratio: "~4.31"
- compound: "Cc1nc(Cc2ccccc2)c2c(c1OCCCN1CCNCC1)COC2 [Example 43]"
  selectivity ratio: "~5.16"
